system: SK-MEL-28; experiment: NCI tumour cell line growth inhibition, 48 h
Activity calls are given as the source filed them. No stated cut-off is given here; in the data, active = GI50 up to about 1.1 µM and inactive = higher.
Parameter call: string, one of active, inactive

Problem: Check the results log: what was the call for COC(=O)C1C2CCCN2OC1(C)CO (stereo not given) ?
Solution: inactive

Problem: Check the results log: what was the call for `O=C(NCCNCCNC(=O)c1cc(-c2ccccc2)nc2ccccc12)c1cc(-c2ccccc2)nc2ccccc12` ?
Solution: inactive

Problem: Check the results log: what was the call for COC(=O)C12CCC(C(F)(F)C1=O)C2(C)C (stereo not given) ?
Solution: inactive

Problem: Check the results log: what was the call for `S=C(NCc1ccccn1)N/N=C/c1ccccn1` ?
Solution: active

Problem: Check the results log: what was the call for OCCN1CCN2C=C(C3CCCC4N(CCO)CCN34)CCC21 (stereo not given) ?
Solution: inactive

Problem: Check the results log: what was the call for `CSc1nc(NC(=O)O)c(N(C(C)=O)C(=O)O)c(=O)n1C` ?
Solution: inactive

Problem: Check the results log: what was the call for `Cc1oc(N)c(S(=O)(=O)c2cc3ccccc3[n+]([O-])c2N)c1C` ?
Solution: inactive

Problem: Check the results log: what was the call for `COc1cc(/C=N/n2c(-c3ccccc3)n[nH]c2=O)cc(OC)c1OC` ?
Solution: inactive

Problem: Check the results log: what was the call for CC(C)CC(NC(=O)C(O)C(N)Cc1ccccc1)C(=O)O (stereo not given) ?
Solution: inactive

Problem: Check the results log: what was the call for COc1ccc(NC2Oc3cc4c(cc3C(c3cccc(OC)c3OC)C2C)OCO4)cc1 (stereo not given) ?
Solution: inactive

Taken from ChEMBL document CHEMBL1201862.
